Examples of compounds with documented TGI follow.
- System: UO-31 renal
- experiment summary: NCI tumour cell line growth inhibition, 48 h

- compound: "CN(C)CCn1c(=O)oc2cc(C(=O)CN3CCOCC3)ccc21"
  measurement target: "UO-31 renal"
  TGI: "> 100 µM"
- compound: "O=c1c2cc(Br)ccc2nc(-c2ccccc2)n1NCC1(O)OCC(O)C(O)C1O (stereo unspecified)"
  measurement target: "UO-31 renal"
  TGI: "> 100 µM"
- compound: "O=C1c2ccc3c4c(ccc(c24)C(=O)N1CCCNCc1ccccc1)C(=O)N(CCCNCc1ccccc1)C3=O"
  measurement target: "UO-31 renal"
  TGI: "0.364 µM"
- compound: "Nc1ccc2ncc(Nc3ccc(F)cc3)nc2c1"
  measurement target: "UO-31 renal"
  TGI: "> 100 µM"
- compound: "COc1ccc(N2CCN(CN3CCN(c4ccc(OC)cc4)C3)C2)cc1"
  measurement target: "UO-31 renal"
  TGI: "> 100 µM"
- compound: "CN(C)CCN1C(=O)c2cccc3c(N)ccc(c23)C1=O"
  measurement target: "UO-31 renal"
  TGI: "> 25 µM"

###

- Test system: UACC-62 melanoma
- experiment summary: NCI tumour cell line growth inhibition, 48 h; in the data active means GI50 below about 0.43 µM; inactive means the rest
Outcomes: class 1 (active), class 0 (inactive)

- compound: "O=S(=O)(CC#CCCCOCC#Cc1ccccc1C#CCS(=O)(=O)c1ccccc1)c1ccccc1"
  category label: "class 0"
- compound: "C=CC[N+]1(CCO)CCN=C1CCCCCCCCCCCCC (stereo not drawn)"
  category label: "class 0"
- compound: "COc1cc(OC)cc(-c2ccc(-c3ccc(C(=N)N)s3)s2)c1"
  category label: "class 0"
- compound: "CC(C)(C)CC(C)(C)N(CSc1ccc(Cl)cc1)CSc1ccc(Cl)cc1"
  category label: "class 0"
- compound: "COc1nc2c(cc1S(=O)(=O)c1ccccc1)CCc1c-2cnn1Cc1ccccc1"
  category label: "class 0"
- compound: "O=C(C[C@@]1(O)C(=O)Nc2c(Cl)ccc(Cl)c21)c1ccc(C2CC2)cc1"
  category label: "class 1"
- compound: "Cc1cc(Nc2cc(CN3CCOCC3)c3nc(C)c(Cc4ccc(Cl)cc4F)n3n2)n[nH]1"
  category label: "class 0"
- compound: "NC(=O)c1ccc2nc(-c3ccc(C4(N)CCC4)cc3)c(-c3ccccc3)n2n1"
  category label: "class 0"
- compound: "CCCCCCCCCCCCOC1C(CNCC2OC3OC(C)(C)OC3C2NC(=O)Nc2ccc(C(F)(F)F)cc2)OC2OC(C)(C)OC21 (stereo not drawn)"
  category label: "class 0"
- compound: "COc1cc2cn3c4ccc(O)cc4nc(N)c3c2cc1OC"
  category label: "class 1"
- compound: "Cc1cc(C(=O)N[C@@H](CCC(=O)O)C(=O)O)sc1CC[C@@H]1CNc2nc(N)[nH]c(=O)c2C1"
  category label: "class 1"
- compound: "O=C1OCC2=C1C(c1cccc(C(F)(F)F)c1)c1cc3c(cc1N2CCO)OCO3 (stereo not drawn)"
  category label: "class 0"
- compound: "C=C(C)[C@@H]1CC[C@]2(C(=O)Nc3ccccn3)CC[C@]3(C)[C@H](CC[C@@H]4[C@@]5(C)CCCNC(C)(C)[C@@H]5CC[C@]43C)[C@@H]12"
  category label: "class 0"
- compound: "C[n+]1c2cc(N)ccc2cc2ccc(N)cc21 (tested in a mixture with another compound)"
  category label: "class 0"
- compound: "COc1ccccc1-c1ccc2nc(NC(=O)Nc3cc(C(F)(F)F)cc(C(F)(F)F)c3)sc2c1"
  category label: "class 0"
- compound: "COc1ccc2[nH]c(-c3ccccc3)c(C=C(C#N)C#N)c2c1"
  category label: "class 0"
- compound: "C[C@H](C(=O)N[C@@H](Cc1ccc(-c2ccccc2)cc1)C(=O)NC1CC(C)(C)N(C)C(C)(C)C1)c1ccc(-c2ccccc2)c(F)c1"
  category label: "class 0"
- compound: "C=CC(=O)NCCOc1cccc(Nc2cc(NCCCNC(=O)C3CCC3)c(Br)cn2)c1"
  category label: "class 0"

###

- Test system: KM12 colon
- experiment summary: NCI tumour cell line growth inhibition, 48 h
Examples of molecules with documented TGI follow.

- molecule: "c1ccc(-n2cnnc2-c2nsc3ccccc23)cc1"
  measurement target: "KM12 colon"
  comparison sign: ">"
  TGI, µM: 100
- molecule: "COc1cc(/C=C/C=C2\\CCC/C(=C\\C=C\\c3ccc(O)c(OC)c3)C2=O)ccc1O"
  measurement target: "KM12 colon"
  comparison sign: "="
  TGI, µM: 97.4
- molecule: "N#Cc1nc(Sc2cnsn2)c(Sc2cnsn2)nc1C#N"
  measurement target: "KM12 colon"
  comparison sign: "="
  TGI, µM: 40.4
- molecule: "COC(=O)/C(=N\\N)C(C(=O)C(=O)Nc1cccc([N+](=O)[O-])c1)c1nc2ccc(C(=O)c3ccccc3)cc2[nH]c1=O (configuration not stated)"
  measurement target: "KM12 colon"
  comparison sign: ">"
  TGI, µM: 100
- molecule: "CN(C)CCNC(=O)c1cccc2ccc(-c3cccnc3)nc12"
  measurement target: "KM12 colon"
  comparison sign: "="
  TGI, µM: 98.4
- molecule: "CCCC(=O)OCC1(CO)C/C(=C/CC(C(C)C)C(C)C)C(=O)O1 (configuration not stated)"
  measurement target: "KM12 colon"
  comparison sign: ">"
  TGI, µM: 100
- molecule: "COC(=O)C1=C([C@H]2COC(C)(C)O2)[C@H]2C[C@@H]1[C@@H]1OC(C)(C)O[C@@H]12"
  measurement target: "KM12 colon"
  comparison sign: ">"
  TGI, µM: 100
- molecule: "CC(N)(Cc1c[nH]c2ccccc12)C(=O)O (configuration not stated)"
  measurement target: "KM12 colon"
  comparison sign: ">"
  TGI, µM: 2500
- molecule: "CC(C)C(C/C=C1/CC(CO)(COC(=O)C(C)(C)C)OC1=O)C(C)C (configuration not stated)"
  measurement target: "KM12 colon"
  comparison sign: "="
  TGI, µM: 27.3
- molecule: "COc1ccccc1-c1ccc2nc(NC(=O)Nc3cc(C(F)(F)F)cc(C(F)(F)F)c3)sc2c1"
  measurement target: "KM12 colon"
  comparison sign: "="
  TGI, µM: 6.45
- molecule: "c1cc2[nH]snc2c2cncc12"
  measurement target: "KM12 colon"
  comparison sign: ">"
  TGI, µM: 100
- molecule: "NC1=NN(c2ccccc2)C(=O)C1/C(=N\\NC(=O)c1cc2ccccc2cc1O)C(=O)Nc1nc([N+](=O)[O-])cs1 (configuration not stated)"
  measurement target: "KM12 colon"
  comparison sign: ">"
  TGI, µM: 80
- molecule: "C=C1C(=O)CCC1C(=O)O (configuration not stated)"
  measurement target: "KM12 colon"
  comparison sign: ">"
  TGI, µM: 100
- molecule: "COc1ccc2c(O)c(/C=C3\\N=Nc4ncccc43)oc2c1C[C@H]1CCNC[C@H]1F"
  measurement target: "KM12 colon"
  comparison sign: "="
  TGI, µM: 4.79
- molecule: "CCOc1ccccc1NC(=O)C(=O)C(C(=O)c1ccc2ccccc2c1)C1OC(=O)c2ccccc21 (configuration not stated)"
  measurement target: "KM12 colon"
  comparison sign: "="
  TGI, µM: 59.5
- molecule: "[C-]#[O+].[C-]#[O+].[Ir].[O-]c1ccc2ccccc2c1N=Nc1ccccc1"
  measurement target: "KM12 colon"
  comparison sign: ">"
  TGI, µM: 44.1
- molecule: "Clc1nc(Cl)c2ncn(C/C=C/Cn3cnc4c(Cl)nc(Cl)nc43)c2n1"
  measurement target: "KM12 colon"
  comparison sign: "="
  TGI, µM: 33.9
- molecule: "CCN=C=NCCCN(C)C"
  measurement target: "KM12 colon"
  comparison sign: ">"
  TGI, µM: 100
- molecule: "Nc1ccc(-c2ccc(Nc3cc(S(=O)(=O)O)c(N)c4c3C(=O)c3ccccc3C4=O)cc2)c(S(=O)(=O)O)c1"
  measurement target: "KM12 colon"
  comparison sign: ">"
  TGI, µM: 100
- molecule: "C[n+]1c2ccccc2c(C(=O)NC(CCCN=C(N)N)C(=O)O)c2ccccc21 (configuration not stated)"
  measurement target: "KM12 colon"
  comparison sign: ">"
  TGI, µM: 100
- molecule: "COc1ccc2c(c1)C(=O)c1c-2c(OCCN(C)C)nc2cc(OC)ccc12"
  measurement target: "KM12 colon"
  comparison sign: "="
  TGI, µM: 2.14
- molecule: "CC(NC1=NCCO1)c1cccs1 (configuration not stated)"
  measurement target: "KM12 colon"
  comparison sign: "="
  TGI, µM: 31.7
- molecule: "COc1cc(CNc2nc3ccccc3n2Cc2ccccc2)cc(CN2CCOCC2)c1O"
  measurement target: "KM12 colon"
  comparison sign: ">"
  TGI, µM: 100
- molecule: "CCOC(=O)NC(Nc1ccc(F)c(F)c1)(C(=O)OCC)C(F)(F)F (configuration not stated)"
  measurement target: "KM12 colon"
  comparison sign: ">"
  TGI, µM: 100
- molecule: "O=C(C[C@@]1(O)C(=O)Nc2c(Cl)ccc(Cl)c21)c1ccc(C2CC2)cc1"
  measurement target: "KM12 colon"
  comparison sign: "="
  TGI, µM: 14.2
- molecule: "C=CC1(c2ccccc2Cl)N/C(=C/OCC)CO1 (configuration not stated)"
  measurement target: "KM12 colon"
  comparison sign: ">"
  TGI, µM: 100
- molecule: "CN(C)c1ccc(/C=C/c2ccnc3ccc4ccccc4c23)cc1"
  measurement target: "KM12 colon"
  comparison sign: ">"
  TGI, µM: 100
- molecule: "O=C1c2ccccc2C(=O)c2c(NC(=O)C(Cl)CCl)cccc21 (configuration not stated)"
  measurement target: "KM12 colon"
  comparison sign: "="
  TGI, µM: 8.26
- molecule: "Cc1cc(S(N)(=O)=O)c(S/C(=N\\Nc2ccc([N+](=O)[O-])cc2)c2ccc(O)cc2)cc1Cl"
  measurement target: "KM12 colon"
  comparison sign: "="
  TGI, µM: 4.14
- molecule: "CN1C(=O)N(C)C2C1NN=c1s/c(=C\\c3c[nH]c4ccccc34)c(=O)n12 (configuration not stated)"
  measurement target: "KM12 colon"
  comparison sign: ">"
  TGI, µM: 100
- molecule: "CCN(CC)CCSc1n[nH]c(-c2c[nH]c3nc(C)ccc3c2=O)n1"
  measurement target: "KM12 colon"
  comparison sign: ">"
  TGI, µM: 100
- molecule: "CN(C(=O)[C@@H](NC(=O)OC(C)(C)C)c1ccccc1)[C@H]1CCCC[C@@H]1N1CCCC1"
  measurement target: "KM12 colon"
  comparison sign: ">"
  TGI, µM: 100
- molecule: "O=C(Nc1ccc(Cl)cc1F)c1cc(F)ccc1O"
  measurement target: "KM12 colon"
  comparison sign: "="
  TGI, µM: 5.56
- molecule: "CCCCCCCCCCCCOC1C(CNCC2OC3OC(C)(C)OC3C2NC(=O)Nc2ccc(C(F)(F)F)cc2)OC2OC(C)(C)OC21 (configuration not stated)"
  measurement target: "KM12 colon"
  comparison sign: "="
  TGI, µM: 8.45
- molecule: "CN(C)CCN1C(=O)c2cccc3c(N)ccc(c23)C1=O"
  measurement target: "KM12 colon"
  comparison sign: ">"
  TGI, µM: 25
- molecule: "CC(O)CCNC(=O)Nc1c(C(F)(F)F)cc(-c2ccccc2)[nH]c1=O (configuration not stated)"
  measurement target: "KM12 colon"
  comparison sign: ">"
  TGI, µM: 100
- molecule: "CC(C)Oc1c(C2(c3ccccc3O)SCCCS2)c(=O)c1=O"
  measurement target: "KM12 colon"
  comparison sign: ">"
  TGI, µM: 100
- molecule: "Cc1ccc(S(=O)(=O)NC(=O)NC(C(=O)O)C(C)O)cc1 (configuration not stated)"
  measurement target: "KM12 colon"
  comparison sign: ">"
  TGI, µM: 100
- molecule: "CCOC(=O)/C(=C\\c1ccnc2ccccc12)P(=O)(OCC)OCC"
  measurement target: "KM12 colon"
  comparison sign: "="
  TGI, µM: 13.9
- molecule: "CC1=C(C(=O)NNC(=O)C(N)=O)CC(C(=O)NNC(=O)C(N)=O)=C(C)N1"
  measurement target: "KM12 colon"
  comparison sign: ">"
  TGI, µM: 100
- molecule: "COc1ccc2c(c1)CCC(CN1CCN(CCOC(c3ccc(F)cc3)c3ccc(F)cc3)CC1)C2O (configuration not stated)"
  measurement target: "KM12 colon"
  comparison sign: "="
  TGI, µM: 63.2
- molecule: "CCN1/C(=C/C=C/C=C/c2sc3ccccc3[n+]2CC)Sc2ccccc21"
  measurement target: "KM12 colon"
  comparison sign: "="
  TGI, µM: 1.4
